B1: glmS ribozyme (parent)
chain: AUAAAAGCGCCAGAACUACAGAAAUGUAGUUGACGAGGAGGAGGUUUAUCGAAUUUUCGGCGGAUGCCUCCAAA

Variants of: B1
assay_protocol: self-cleavage kobs at 640 uM GlcN6P; higher = faster cleavage; RNA array
recorded_conditions: with glucosamine-6-phosphate
Variants at the floor of the assay were thinned out.
result_type: self-cleavage kobs at 640 uM GlcN6P (s⁻¹)
Answers are plain numbers, in s⁻¹.

In the examples that follow, each entry is paired with its recorded self-cleavage kobs at 640 uM GlcN6P.
self-cleavage kobs at 640 uM GlcN6P recorded for this variant, A15U U69A , is 4.48e-05

Query A15C C67U yields self-cleavage kobs at 640 uM GlcN6P of 0.00045

Short answer for U54G U56C : self-cleavage kobs at 640 uM GlcN6P was 0.000986

Form: variant = A12C U49G C67U ; self-cleavage kobs at 640 uM GlcN6P = 5e-05

Lab book: self-cleavage kobs at 640 uM GlcN6P of U31C U55C noted as 0.00116

New cases:
The variant listed as U30C G63U C68G has a reported self-cleavage kobs at 640 uM GlcN6P of 9.11e-05
